We begin with a simple list: items and their reported Average EC50 (nM), HEK-Blue IL-2R (CD122+, CD132+) Reporter Assay.
Molecular target: IL-2Rβγ (CD122+, CD132+) on HEK-Blue IL-2Rβγ reporter cells (UniProt P14784)
Sequence (P14784 27-551 limits assumed, chain 1 of 2): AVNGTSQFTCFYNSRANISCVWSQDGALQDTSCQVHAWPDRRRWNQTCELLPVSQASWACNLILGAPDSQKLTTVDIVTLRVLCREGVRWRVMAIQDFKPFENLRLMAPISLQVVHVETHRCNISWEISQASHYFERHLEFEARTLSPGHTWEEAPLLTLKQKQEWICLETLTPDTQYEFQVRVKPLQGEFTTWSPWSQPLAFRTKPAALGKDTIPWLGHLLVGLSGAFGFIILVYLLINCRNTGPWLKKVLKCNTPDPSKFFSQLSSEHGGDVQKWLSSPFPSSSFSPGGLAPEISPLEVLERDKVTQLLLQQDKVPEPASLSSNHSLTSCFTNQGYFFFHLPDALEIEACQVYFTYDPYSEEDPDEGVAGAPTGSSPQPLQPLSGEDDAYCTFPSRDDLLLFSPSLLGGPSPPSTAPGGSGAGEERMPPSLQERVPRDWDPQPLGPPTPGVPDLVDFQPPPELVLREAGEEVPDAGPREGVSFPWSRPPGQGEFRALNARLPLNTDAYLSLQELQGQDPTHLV
Sequence (P31785 23-369 limits assumed, chain 2 of 2, further chain): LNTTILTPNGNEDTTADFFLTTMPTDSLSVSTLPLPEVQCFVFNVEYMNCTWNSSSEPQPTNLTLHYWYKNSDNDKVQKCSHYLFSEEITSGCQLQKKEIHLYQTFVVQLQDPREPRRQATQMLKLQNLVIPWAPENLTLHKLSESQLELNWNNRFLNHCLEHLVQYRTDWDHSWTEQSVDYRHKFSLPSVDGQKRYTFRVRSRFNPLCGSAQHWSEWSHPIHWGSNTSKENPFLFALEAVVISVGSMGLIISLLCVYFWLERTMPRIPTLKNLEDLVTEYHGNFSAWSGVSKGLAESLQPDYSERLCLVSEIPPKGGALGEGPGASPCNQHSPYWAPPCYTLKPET
Assay: cell-based or functional assay
Bridges are numbered along the chain shown (N, C = ends). Primed or numbered codes have the meaning given here. [ ]: non-standard residue; d: D form. Ygp(4) = Tyr with amino-capped PEG8 (O-(8x polyethylene glycol-amino)-tyrosine); Yn3(4) = Tyr with azide-capped PEG9 (O-(9x polyethylene glycol-azido)-tyrosine); PEG9″ = 9x polyethylene glycol spacer; PEG4′ = 4x polyethylene glycol; hSer = N[C@@H](CCO)C(=O)O; Nle = CCCC[C@H](N)C(=O)O
# output: bare number, implied unit nM

Study these solved cases before continuing.
CMP-159, MMP2 cleaved (ligand, linker N-28 via PEG4′; not fully specified (N-terminus); ends not checked; also: cut by MMP2 in the PLGLAG linker, site not given here, ring opened) PLGLAGAPTSSSTKKTQLQLEHLLLDLE[Nle]ILNGINNYKNPKLTR[Nle]L[hSer][Yn3(4)]KF[Ygp(4)][Nle]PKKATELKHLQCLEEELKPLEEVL[hSer]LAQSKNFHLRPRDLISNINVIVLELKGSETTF[hSer]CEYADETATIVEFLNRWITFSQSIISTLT: 0.0071
CMP-161 (ligand, linker N-32 via PEG9″; not fully specified (N-terminus); ends not checked) PLGLAGAPTSSSTKKTQLQLEHLLLDLQ[Nle]ILEGINNYKNPKLTR[Nle]L[hSer][Yn3(4)]KF[Ygp(4)][Nle]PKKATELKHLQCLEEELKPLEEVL[hSer]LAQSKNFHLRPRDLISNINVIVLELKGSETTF[hSer]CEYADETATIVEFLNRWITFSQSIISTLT: 0.168
CMP-152, MMP2 cleaved (ligand, linker N-38 via glutaryl‑PEG9; not fully specified (N-terminus); ends not checked; also: cleavable peptide cut by MMP2, site not given here) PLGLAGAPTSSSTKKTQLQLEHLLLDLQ[Nle]ILNGINNYKNPKLTR[Nle]L[hSer][Yn3(4)]KF[Ygp(4)][Nle]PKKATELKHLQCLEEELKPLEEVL[hSer]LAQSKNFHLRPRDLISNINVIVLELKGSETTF[hSer]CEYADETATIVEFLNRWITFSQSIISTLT: 0.0064

With those in mind, consider the next binder.
Answer with reported Average EC50 (nM), HEK-Blue IL-2R (CD122+, CD132+) Reporter Assay of CMP-161, MMP2 cleaved (ligand, not fully specified (N-terminus, bridges); ends and bridges not checked; also: cut by MMP2 in the PLGLAG linker, site not given here, ring opened) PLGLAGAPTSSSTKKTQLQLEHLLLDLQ[Nle]ILEGINNYKNPKLTR[Nle]L[hSer][Yn3(4)]KF[Ygp(4)][Nle]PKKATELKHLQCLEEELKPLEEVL[hSer]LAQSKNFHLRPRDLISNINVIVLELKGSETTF[hSer]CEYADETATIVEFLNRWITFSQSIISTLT 0.0118
